TESTED TARGET: PRMT5/MEP50 complex (Homo sapiens, UniProt O14744)
Sequence (O14744 whole entry): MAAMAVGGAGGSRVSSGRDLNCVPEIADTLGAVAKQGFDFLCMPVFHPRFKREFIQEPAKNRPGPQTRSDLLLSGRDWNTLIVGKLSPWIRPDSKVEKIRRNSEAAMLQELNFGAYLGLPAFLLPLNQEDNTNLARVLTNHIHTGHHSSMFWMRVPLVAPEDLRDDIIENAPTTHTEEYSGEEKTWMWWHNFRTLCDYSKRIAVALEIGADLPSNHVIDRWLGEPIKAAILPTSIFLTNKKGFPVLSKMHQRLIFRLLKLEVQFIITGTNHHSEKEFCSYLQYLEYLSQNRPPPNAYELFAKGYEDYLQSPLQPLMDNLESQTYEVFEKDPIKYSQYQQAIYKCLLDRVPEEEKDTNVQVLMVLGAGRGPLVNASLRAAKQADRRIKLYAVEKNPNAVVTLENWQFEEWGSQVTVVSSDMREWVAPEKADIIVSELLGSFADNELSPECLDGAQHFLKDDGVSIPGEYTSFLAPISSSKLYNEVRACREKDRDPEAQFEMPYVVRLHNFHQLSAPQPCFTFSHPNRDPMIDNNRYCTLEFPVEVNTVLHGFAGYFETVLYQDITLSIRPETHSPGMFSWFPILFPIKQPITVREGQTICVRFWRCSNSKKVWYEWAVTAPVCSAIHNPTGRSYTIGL
Sequence (Q9BQA1 whole entry, further chain): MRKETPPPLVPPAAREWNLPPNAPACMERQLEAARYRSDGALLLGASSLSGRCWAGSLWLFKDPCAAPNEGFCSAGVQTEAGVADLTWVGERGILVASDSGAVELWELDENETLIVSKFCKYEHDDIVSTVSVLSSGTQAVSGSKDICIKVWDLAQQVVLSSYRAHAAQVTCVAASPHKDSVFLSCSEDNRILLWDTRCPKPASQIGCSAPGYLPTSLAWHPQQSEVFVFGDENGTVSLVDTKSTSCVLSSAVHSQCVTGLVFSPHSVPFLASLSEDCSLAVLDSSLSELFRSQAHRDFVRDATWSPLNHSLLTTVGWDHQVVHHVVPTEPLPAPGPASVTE
ASSAY REMARKS: Inhibition of recombinant human N-terminal FLAG-tagged PRMT5 (2 to end residues) /human N-terminal His-tagged MEP50 (2 to end residues) expressed in HEK293F cells using histone H4 as substrate preincubated for 15 mins followed by substrate/S-adenosyl methionine addition measured after 60 mins by alpha LISA assay
Design: species or system HEK293
Measured IC50 accompanies every entry in the list below.
Numeric answer only, unit µM assumed.

Input: May I ask what IC50 has been recorded for `Cc1ccc(OCc2nnc3sc(-c4cccnc4)nn23)cc1` ?
Output: 26

Input: May I ask what IC50 has been recorded for COc1ccc(C(=O)NC2C=NCS2)c(OC)c1 (stereo unspecified) ?
Output: 27

Input: May I ask what IC50 has been recorded for `COC(=O)c1ccccc1NC(=O)CSc1nc2cc(C)ccc2[nH]1` ?
Output: 1.4

Input: May I ask what IC50 has been recorded for `COC(=O)c1ccccc1NC(=O)CSc1nc2nc(OC)ccc2[nH]1` ?
Output: 8.4

Input: May I ask what IC50 has been recorded for `COC(=O)c1ccccc1NC(=O)CSc1nc2cc([N+](=O)[O-])ccc2[nH]1` ?
Output: 0.83

Input: May I ask what IC50 has been recorded for `O=C(/C=C/c1ccc(-c2ccccc2[N+](=O)[O-])o1)c1ccccc1` ?
Output: 23
